target: PARP-1 enzyme (Homo sapiens); construct: made in house; test: In vitro Scintillation Proximity Assay (SPA) for PARP-1 inhibitory activity; assay type: biochemical; conditions: nicked DNA activated PARP-1, [3H]-NAD+, biotinylated histones; read-out: In vitro SPA pIC50 (converted)
Sequence (P09874 whole entry): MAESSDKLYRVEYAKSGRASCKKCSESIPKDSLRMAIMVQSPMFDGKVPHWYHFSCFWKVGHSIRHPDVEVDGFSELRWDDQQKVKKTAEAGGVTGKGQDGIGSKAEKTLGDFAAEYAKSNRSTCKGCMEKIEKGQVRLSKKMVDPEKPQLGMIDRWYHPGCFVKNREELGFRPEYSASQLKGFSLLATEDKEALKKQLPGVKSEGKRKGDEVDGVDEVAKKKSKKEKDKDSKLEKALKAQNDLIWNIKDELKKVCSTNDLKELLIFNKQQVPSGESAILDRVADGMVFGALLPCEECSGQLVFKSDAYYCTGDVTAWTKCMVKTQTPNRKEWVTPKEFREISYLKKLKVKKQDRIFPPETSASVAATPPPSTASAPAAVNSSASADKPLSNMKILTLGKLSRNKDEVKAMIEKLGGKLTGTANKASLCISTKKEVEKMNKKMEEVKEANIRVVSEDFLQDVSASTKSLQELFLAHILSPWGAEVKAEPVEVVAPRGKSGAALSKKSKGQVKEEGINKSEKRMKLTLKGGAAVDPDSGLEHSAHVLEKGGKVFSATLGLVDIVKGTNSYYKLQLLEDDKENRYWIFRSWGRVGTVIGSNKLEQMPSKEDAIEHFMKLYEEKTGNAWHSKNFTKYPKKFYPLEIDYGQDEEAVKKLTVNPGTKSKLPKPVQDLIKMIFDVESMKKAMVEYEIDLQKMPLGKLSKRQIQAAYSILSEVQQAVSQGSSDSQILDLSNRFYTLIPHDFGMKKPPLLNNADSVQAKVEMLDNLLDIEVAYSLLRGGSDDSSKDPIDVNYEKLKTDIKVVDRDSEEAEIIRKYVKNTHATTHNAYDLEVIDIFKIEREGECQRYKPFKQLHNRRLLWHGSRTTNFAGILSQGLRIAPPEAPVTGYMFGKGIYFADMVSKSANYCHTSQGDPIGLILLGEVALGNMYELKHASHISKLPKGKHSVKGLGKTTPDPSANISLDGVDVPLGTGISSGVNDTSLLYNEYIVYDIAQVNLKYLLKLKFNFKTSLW
// NB: equality with 200 nM counts as Condition not met; only IC50 strictly below is Condition met

q: I'd appreciate it if you could check whether CCc1cc2cc(C(c3ccc4c(c3)OCCO4)N3CCC(CCN4CCCCC4)CC3)ccc2[nH]c1=O (centres unmarked) [Compound 31] has IC50 smaller than 200 nM.
a: Condition met

q: Quick check: IC50 of CCc1cc2cc(C(c3ccc4c(c3)OCCO4)N3CCN(CC4CCCCC4)CC3)ccc2[nH]c1=O (centres unmarked) [Compound 41] under 200 nM?
a: Condition met

q: is_below(IC50, 200 nM) for CCc1cc2cc(C(c3ccc(Cl)c(Cl)c3)N3CCC(NCCOC)CC3)ccc2[nH]c1=O (centres unmarked) [Compound 83] ?
a: Condition not met

q: Is 200 nM strictly greater than the compound's reported IC50? compound: Cc1cc2cc(C(c3ccccc3)n3cncn3)ccc2[nH]c1=O (centres unmarked) [Compound 5]
a: Condition not met

q: Input CCc1cc2cc(C(CCN(C)C)c3cccc(C(F)(F)F)c3)ccc2[nH]c1=O (centres unmarked) [Compound 91] ; condition: IC50 strictly below 200 nM. Does it hold?
a: Condition met

q: Is IC50 strictly under 200 nM for the entry CCc1nc2cc(CC(c3ccc(Cl)cc3)N3CCN(C4CCCCC4)CC3)ccc2[nH]c1=O (centres unmarked) [Compound 117] ?
a: Condition not met

q: is_below(IC50, 200 nM) for CCc1cc2cc(C(c3ccc(Cl)cc3Cl)N3CCC(NCCOC)CC3)ccc2[nH]c1=O (centres unmarked) [Compound 66] ?
a: Condition not met

q: Is it true that IC50 reported for Cc1cc2cc(C(CCN3CCCCC3)c3ccccc3)ccc2[nH]c1=O (centres unmarked) [Compound 89] is less than 200 nM?
a: Condition not met

Recorded values, source patent US8071612B2.
